Source of measurements: the nanobody polyreactivity screen of Harvey et al. (2022)

# experiment: yeast display, Sf9 membrane polyspecificity reagent, FACS + sequencing; frameworks hold sequencing errors
quantity.name: polyreactivity (PSR sort gate)

seq.text	quantity.name	recorded.result
QVQIVESGGGLVQAGGSLRLSCAASGSTFYRNAMGWYRQAPGKERELVAAIRWTGGNTYYADSVKGRFTISRDNAKNTVYLQMNSLKPEDTAVYYCAARSPLYGHGYWGQGTQVTVSS	polyreactivity (PSR sort gate)	high polyreactivity
QVQLVESGGGLVQAGGSLRLTCAASGSIVDANAMGLYRQAPGKERELVAAISSGDSTSYADSVKGRFTISRDNAKNTVYLQLNSLNPEDTAVYYCNAYVDSQGGFTLKHDYWGQGTQVTVSS	polyreactivity (PSR sort gate)	low polyreactivity
QVQLVESGGGLVQAGGSLRLSCAASGRIFRLYTMGWYRPAPGKERELVAAISGSGGRTYYADSVKGRFTISRDNAKNTVYLQMNSLKPEDTAVYYCAKVGYKSPYLYSQHYTGFGYWGQGTQVTVSS	polyreactivity (PSR sort gate)	high polyreactivity
QVQLVESGGGLVQAGGSLRLSCAASGFIFVYYAMGWYRQAPGKERELVATISSSSASTYYADSVKGRFTISRDNAKNTVYLQMNSLKPEDTAVYYCAVLVSRYRYRVLDDSWGQGTQVTVSS	polyreactivity (PSR sort gate)	high polyreactivity
QVQLVESGGGLVQAGGSLRLSCAASGSIFKGNAMGWYRQAPGTERELVASITRSVARTYYADSVKGRFTISRDNAKNTVFLLMNSLKAEDTAVYYCAADWYQWGGRYYAPRYYYWGQGTQVTVSS	polyreactivity (PSR sort gate)	high polyreactivity

IN: Please give the measured polyreactivity (PSR sort gate) for this sequence: QVQLAESGGGFVQAGGTLRLTCAASGSIFTSNAMGWFRQAPGKERELVAPSSWRGTSTYYADSVKGRYTISRDNAKTTVYLQMNSLKPVDTAVYYCAKYRRFRPYGSNGIYDYWGQGTQVTVSS
OUT: high polyreactivity

IN: Requested read-out: polyreactivity (PSR sort gate). Entry: QVQLVESGGGLEQAGGSLRLSCAASGLTFSAYVMAWYRLAPGKERELVAAISRRGGSTYYAYSVKGRFTISRDNAKNTVYLQMNSLKPEDTAVYYCAARKVAVRGYGYWGQGTQVTVSS
OUT: high polyreactivity

IN: What measured polyreactivity (PSR sort gate) goes with QVQLVESGGGLVQAGGSLRLSCAACGLTFDDYAMGWSRQAPGKERELVAAISKSGDGTYYADSVKGRFTISRDNAKNTVYLQMNSLKPEDTAVYYCNADAKYWGFVYWWFGEDNWGQGTQVPVSS ?
OUT: low polyreactivity

IN: Can you look up the measured polyreactivity (PSR sort gate) of QVQLVESGGGLVQAGGSLRLSCAASGSTFVRYAKGWYRQAPGKERELVAGISRRSGRTYYADSVKGRFTISRDNAKNTVYLQMNSLKPEDTAVYYCAARGIGGYEYWGQGTQVTVSS for me?
OUT: high polyreactivity

IN: Which polyreactivity (PSR sort gate) value belongs to QVQLVESGGGLVQAGGSLRLSCAASGITFSSNAMGWSRQAPGKERELVAAISSSGGRTYYADSVKVRFTISRDYAKNTVYLQMNSLKPEDTAVYYCAKTSRYYYYSRLYYWGQGTKVTVSS ?
OUT: high polyreactivity

IN: State the recorded polyreactivity (PSR sort gate) for this entry: QVQLVESGGGLVQAGGSLRLSCAASGRIFGKYVMGWYRQAPGKERELVAAISSGGSTYADSVKGRFTISRDNAKNTFYLQMNCLKPEDTAVYYCNTRPRLYGYRPSQYTYDYWGQGTQVTVSS
OUT: high polyreactivity

* * *

# experiment: yeast display, Sf9 membrane polyspecificity reagent, FACS + sequencing; frameworks hold sequencing errors
quantity.name: polyreactivity (PSR sort gate)

seq.text	quantity.name	recorded.result
QVQLVESGGGLVQAGGSLRLSCAASGIIFATYAMGWYRQAPGKERELVAAISSGGRTYYADSVKGRFTISRDNAKNTVYFQMNSLKPEDTAVYYCAAKSGGRSSLYNYWGQGTQVTVSS	polyreactivity (PSR sort gate)	high polyreactivity
QVQLVESGGGLLQAGGSLRLSCAASGRTFYHYTMGWYRQAPGKERELVARITRRVGSTYYADSVKGRFTISRDNAKNIVYLQMNSLKPEDTAVYYCNSKSGVYRYLLDYWGQGTQVTVSS	polyreactivity (PSR sort gate)	high polyreactivity
QVQLVESGGGLDQAGGSLRLSCAASGSIFRYYAMGWYRQAPGKEREFVASITYRGGRTYYADSVKGRFTISRDNAKNTVYLQMNSLKPEDTAVYYCAARTRAGAWTSKYHDYWGQGTQVTVSS	polyreactivity (PSR sort gate)	high polyreactivity
QVQLVESGGGLVQAGGSLRLSCAASGSTIRNYAMGWYRQAPGKERELVAAISSGGRTYYADSVKGRFTISRDNAKNTVYLQMNSLKPEDTAVYYCYTPYTVRGRYSYDYWGQGTQVTVSS	polyreactivity (PSR sort gate)	high polyreactivity

IN: Suppose we examine the sequence QVQLVDSGGGLVQAGGSLRLSCAASGRIFLVNALGGSRQAPGKERELVAAISYRSGRTYSADSVKGRFTISRDTAKNTVYLQMNSLIPEDTAVYYCAAYTNVADMDYWGQGTQVTVSS ; what polyreactivity (PSR sort gate) value has been reported?
OUT: high polyreactivity

IN: Any idea what polyreactivity (PSR sort gate) was measured for QVQLVESGGGLVQAGGSLRLSCAASGSTLRGYAMGWYRQAPGKEMELVAAITRSGGSTYYADSVKGRFTISRDNAKNTVYLQMNSLKPEDTAVYYCNARAFPYYRRFDYWGQGTQVTVSS ?
OUT: high polyreactivity

IN: What value of polyreactivity (PSR sort gate) has been reported for the following sequence? QVQLVESGGGLVQAGGSLRLSSAASGSTFISYAMGRYSQAPGQDRELVAAISSGGGRTSYADSVKGRLTISRDHAKNTVYLQMNSLKPEDTAVYYCNKTPHFPRPGFNYWGQGTHVTVSS
OUT: low polyreactivity

IN: Consider the sequence shown here: QVQLVESGGGLVQAGGSLRLSCAASGYIFHLYGMGWYRQAPGKERELVARISYRGGSTYYADSVKGRFTISRDNAKNTVYLQMNSLKTEDTAVYYCAKDYYKHYYWGQGTQVTVSS What is its recorded polyreactivity (PSR sort gate)?
OUT: high polyreactivity

IN: Entry under review: QVQLVESVGGLVQAGGSLRLSCAAAGRTFTLYAMGWYRQATGKERELVAAIRWSGSSTYSADSVKGRFTISRDNAKNTVYLQMNSLKPEDTAVYACDARAGRYDRYGYWGQGTQVSVSS . Reported polyreactivity (PSR sort gate)?
OUT: high polyreactivity

IN: Which measured polyreactivity (PSR sort gate) value corresponds to QVQLVESGGGLVQAGGSLRLSCAASGRIFRYYAMGWYRQAPGKERELVAAITAGGGTTYYADSVKGRFTISRDNAKNTVYLQMNSLKPEDTAVYYWAKDGRYYSHYNYWGQGTQVTVSS ?
OUT: high polyreactivity

* * *

# experiment: yeast display, Sf9 membrane polyspecificity reagent, FACS + sequencing; frameworks hold sequencing errors
quantity.name: polyreactivity (PSR sort gate)

seq.text	recorded.result
QVQLVESGGCLVQAGGSLRFSCAASGSTFHRYVMGWYRQAPGKERELVAVINSTGGSTYYADSVKGRYTISRDNAKNTVYLQMNSLKPEDTAVYYCARVTRRGPGYTTLYSRYDYWGQGTQVNVSS	low polyreactivity
QVQLVESGGGLVQAGGSLRLSCAASGSTFRYYAMGWYRQAPGKERELVAAITQSGGITYYADSVKGRFTISRDNANNTVYLQMNSLKPEDTAVYFCAKRYYVDYDYWGQGTQVTVSS	low polyreactivity
QVQLVESGGGLVQAGGSLRLSCAASGYTFWQYAMGWYRQAPGKERELVAAISGSGGRTYYADSVKGRFTISRDNAKNPVYLQMHSLKPEDTAVYYCAVGYRTPYLSRGGYWGQGTQVTVSS	high polyreactivity
QVQRLESGGGLVKAGGSLRLSCSASGIILPYYVMGWYRQAPGKEREFVADITWSGGSTYYADSVKGRFTISRDNAKNTVYLQMNSLKPEDTAVYYCAAEGPWYYFFDMDYWGQGTQVTVSS	high polyreactivity

// next entry
IN: What polyreactivity (PSR sort gate) value was documented for this sequence, QVQLVESGGGLVQAGGSRRLSCAASGSISVGFTMGWYRQAPGKEWEFVAVITGTGGRTRYADSVKGRFTISRDNAKNTVYLQMNSLKPEDTAVYYCAAKIRWRGALYDYWGQGSQVTVSS ?
OUT: high polyreactivity

* * *

# experiment: yeast display, Sf9 membrane polyspecificity reagent, FACS + sequencing; frameworks hold sequencing errors
quantity.name: polyreactivity (PSR sort gate)

Field: example entries. Status: answers known.
seq.text	recorded.result
QVQLVESGGGLVQAGGRLRLSCAASGRTFPGYDMGWYRQAPGKERELVAAITRSGGSTYYADSVKGRFTISRDNAKNTVYLQMNSLKPEDTAVYYCATERHFYYSTFYYWGQGTQVTVSS	high polyreactivity
QGQLVESGGGLVHAGGSLRLSCAASGSIFTGNAMGWYIQAPGKEREMVAAITGRGGNTYYADSVKGRYTISRDNAKNTVYLQMMSLKPEETAGYYCAKVFFHTPIVPEYDYWGQGSQVTVSS	low polyreactivity
QVQLVESGGGLVQAGGSLRLICAASGFTINYYVMGWYRQAPGKERELVAAISGRGGSTYYADSVTGRFTISRDNAKNTVYLQMNSLNPEETAVYYCNKVFSIPWQGVRFDFWGQGTQVTVSS	high polyreactivity
QVQLVESGGGLVQAGGSLRLSCAASGFTFGPYAMGWYRQAPGNEMELVAGITWSGASTYYADSVKGRFTISRDNAKNTVYLQMNSLNPEDSAVYYCARYYRLVSRYDYWGQGRQVTVSS	low polyreactivity

Could you now look at the following sequence, please?
IN: May I ask what polyreactivity (PSR sort gate) has been recorded for QVQLVESGGGLVQAGGSLRLSCAASGNILGYYAMGWYRQAPGKERELVADINWDGGSTYYADSVKGRFTISRDNAKNTVYLQMNSLKPEDTAVYYCNAEVGITWWFREVDYWGQGTQVTVSS ?
OUT: high polyreactivity
